# conditions: in acetonitrile, 298.15 K
observation.type: solubility (mole fraction)
Could you respond with only the numeric value?

IN: // solubility (mole fraction) lookup, key: Nc1cncc(Cl)n1
OUT: 0.0209

====

# conditions: in ethylene glycol, 308.15 K
observation.type: solubility (mole fraction)
Could you respond with only the numeric value?

IN: // solubility (mole fraction) lookup, key: Nc1cncc(Cl)n1
OUT: 0.00239

====

# conditions: in isopropanol, 283.15 K
observation.type: solubility (mole fraction)
Could you respond with only the numeric value?

IN: // solubility (mole fraction) lookup, key: Nc1cncc(Cl)n1
OUT: 0.00503

====

# conditions: in isopropanol, 303.15 K
observation.type: solubility (mole fraction)
Could you respond with only the numeric value?

IN: // solubility (mole fraction) lookup, key: Nc1cncc(Cl)n1
OUT: 0.0104
